Assay: Effect of food study: plasma pharmacokinetics fasted vs high-fat breakfast
Assay type: in vivo, humans
Details: male, human, plasma, oral, 100 mg, 100 mg eplerenone capsule; High Fat Breakfast; 3.0 hours after dosing

# molecule, concentration at 3 h / ng/mL
records = [
    ("COC(=O)C1CC2=CC(=O)CCC2(C)C23OC2CC2(C)C(CC[C@@]24CCC(=O)O4)C13 (stereo partly shown) [eplerenone]", 1040),
]

* * *

Assay: Single dose study: plasma pharmacokinetics of eplerenone, open lactone ring form, spironolactone
Conditions: male, human, plasma, po, 300 mg
parameterMeasured: concentration at 1 h

# compound, parameterMeasured, observed
measured = [
    ("COC(=O)C1CC2=CC(=O)CCC2(C)C23OC2CC2(C)C(CC[C@@]24CCC(=O)O4)C13 (stereo partly shown)", "concentration at 1 h", "2680 ng/mL"),
]
